- Tested on: PPARg DBDmut:RXRa IVT, anti-PPARg (DBD mutation: PPARg1 K132A/R137A, NR concentration 270 nM, RXRa partner concentration 90 nM)
- protocol summary: PBM binding z-score (relative to random genomic background probes); higher = stronger binding; sequences stand for … in GC…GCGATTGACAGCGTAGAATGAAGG
Classify by measured PBM binding z-score: met if it is equal to or exceeds 0.2, not met if it is smaller.

# entry sequence, label value
measured = [
    ("CCTGCTACGTCATGGTCAGCTAATCTACAGTATG", "met"),
    ("CCTACTGGGCCACGAAAGGTCATTGATTCAGTGA", "met"),
    ("ACTAGCAGGCCCAGGGTCACTCAAGATTAGTCCG", "not met"),
]

## Task Kindly determine if PBM binding z-score recorded for CGTCCAAGGTCAAAGGGCAGTGAAGAGATGACGG is above or exactly 0.2.
## Result not met

###

Would you kindly list PBM binding z-score for each of these sequences?
- Tested on: RXRa homodimer (NR concentration 180 nM)
- protocol summary: PBM binding z-score (relative to random genomic background probes); higher = stronger binding; sequences stand for … in GC…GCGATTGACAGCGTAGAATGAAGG
Give bare numbers.

Here are 8 sequences together with their reported answers.
# entry sequence, test target, PBM binding z-score
records = [
    ("ACTATTAGTTGACACGAGGGCAACCGATAGGTTG", "RXRa homodimer (NR concentration 180 nM)", 1.22),
    ("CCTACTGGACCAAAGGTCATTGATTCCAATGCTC", "RXRa homodimer (NR concentration 180 nM)", 6.4),
    ("GCTGCTAGGTCAGGTTGGTCAGCTATCGGGTACG", "RXRa homodimer (NR concentration 180 nM)", 0.93),
    ("CCTACTGGGCCAAAATGGTCATTGATGCCGATAA", "RXRa homodimer (NR concentration 180 nM)", -0.05),
    ("GATACAGGGTCTGCTAGAGGCCAGAGTATGGAAA", "RXRa homodimer (NR concentration 180 nM)", -0.0451),
    ("TCTTGTAGATCAAAGGTTATGAAAGCCGAAGCCT", "RXRa homodimer (NR concentration 180 nM)", 3.08),
    ("ACTATTAGTAGACTTAGGGCAACCGATACGACGC", "RXRa homodimer (NR concentration 180 nM)", 0.292),
    ("ACTAGCTGGTCAGCTGAGGTCACACACAATTCGG", "RXRa homodimer (NR concentration 180 nM)", 4.03),
]

## Task Notebook: pull reported PBM binding z-score for RXRa homodimer (NR concentration 180 nM), entry CAATCTAGGTCAAGGTCAAAGTCGGTTTGTGCCA
## Result 5.61

###

- System: RARg homodimer (NR concentration 270 nM)
- protocol summary: PBM binding z-score (relative to random genomic background probes); higher = stronger binding; sequences stand for … in GC…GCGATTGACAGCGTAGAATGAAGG
observable: PBM binding z-score
One number for each entry.

These solved cases illustrate the format of a correct answer.
# entry sequence, test target, PBM binding z-score
measured = [
    ("CCTACTGGGACACGAAAGGTCATTGATTCAGTGA", "RARg homodimer (NR concentration 270 nM)", 4.53),
    ("AGAATGAGATTATACGTAGATCAGGGAAGAAAGT", "RARg homodimer (NR concentration 270 nM)", 0.288),
    ("CCGACTGGGGCAAAGGTTACCAAACTCAGTACGA", "RARg homodimer (NR concentration 270 nM)", 1.67),
    ("ACTAGCACGCCAAGTTTGGGTCACTCAAACAAAG", "RARg homodimer (NR concentration 270 nM)", 0.804),
    ("CCTGCTAGGTCATGGTCAGCAAATCTACAGTATG", "RARg homodimer (NR concentration 270 nM)", 4.6),
]

Here are 8 sequences. What values of PBM binding z-score were reported for them?
1. TCTAGTTGGTCAAAGCTCACACACTCGAAATGCG
2. CTCGAAAGGTCGTGCTCAGGTGAGTCTACCAAAC
3. CGAACTAGGTCAGAACAGGACAGTAAAGGATGAT
4. CGTCAAAGTTCAACTAAGGTACCGTAAAGCACGC
5. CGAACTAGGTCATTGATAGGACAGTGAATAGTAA
6. CCTACTGGGCGATCAGGTCATTGATATCAACGTT
7. TAGCCTAGGTCATTGGTCCAGTATAGTACGCATC
8. CGTCCAAGGTCATAGCAGGTCAGTGAAGACAGAT

## Result
[0.77, 3.98, 3.35, 6.61, 4.22, 1.37, 3.82, 6.53]

###

Kindly supply the reported PBM binding z-score values for the records listed here.
- System: LXRa:RXRa (NR concentration 270 nM, RXRa partner concentration 90 nM)
- protocol summary: PBM binding z-score (relative to random genomic background probes); higher = stronger binding; sequences stand for … in GC…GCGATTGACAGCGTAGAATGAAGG
Numbers only.

These recorded examples may help you get a feel for the data.
# entry sequence, PBM binding z-score
measured = [
    ("CCTAGCAGGCCAATCTGGGACACTCAAGGCTTGA", -0.43),
    ("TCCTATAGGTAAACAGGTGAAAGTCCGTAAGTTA", 0.51),
    ("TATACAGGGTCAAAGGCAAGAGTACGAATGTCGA", 6.12),
    ("TCGAGTAGGTTAGTCGGAGCATTCAGCCAACATA", -0.512),
    ("CCTACGGGGCCATCAGGTCATTGATATCAACGTT", 1.72),
    ("ATCTCTAGGTAAAAGTTCAGTAAATCCCGAGGAT", 1.49),
    ("CCTATTAGTTGACCATAAGGGCTACCGAAGCTCG", 0.0436),
]

## Task Sample TCTATTAGTTGAAGGGCAGCCGACGAGTCCGTTT — what was its PBM binding z-score?
## Result 0.864

###

- System: PXR homodimer (NR concentration 270 nM)
- protocol summary: PBM binding z-score (relative to random genomic background probes); higher = stronger binding; sequences stand for … in GC…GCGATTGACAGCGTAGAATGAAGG
Outcome label depends on PBM binding z-score relative to 0.3: at/above gives True, below gives False.

Reference set (10 entries):
# entry sequence, label value
data = [
    ("TCATATAGGTAAACATGTGAAAGTCCGTAAGTTA", "True"),
    ("ATCGAAAGGTCGAAGGTGAATATACCCACCCGAA", "True"),
    ("ACTATTAGTTGAGACGAGGGCAACCGATAGGTTG", "True"),
    ("CGTCAAAGTTCAAGTAAGGTAACGTAAAGCACGC", "True"),
    ("CAAACTAGGTTACGAAAGGTCAAAGTCGAATGAC", "True"),
    ("CCTATCAGGCCAGGGTCACTCAAGCATTTCGCTT", "False"),
    ("AGAACAAGGGCAATGAGTTGATAGCACGGGTGGC", "True"),
    ("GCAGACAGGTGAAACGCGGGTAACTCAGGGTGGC", "False"),
    ("CCTTACGGGTCACTCCAGGTTATAGAATCGGAGT", "True"),
    ("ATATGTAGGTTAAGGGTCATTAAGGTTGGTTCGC", "True"),
]

## Task Please indicate if the recorded PBM binding z-score for GATACAGGGTCAGCTAGAGGCCAGAGCATGGAAA meets or exceeds 0.3.
## Result False

## Task Continue with TTACCAAGGTGAAAGTCGTTGATCCCTCTGTAGA
## Result False

## Task Also AGAATGAGGTTGCCAAAGATCAGGGAAACGCTTG ?
## Result False

## Task Here is the next sequence: TCATATAGGTAATTCAGGTGAAAGTCGGCATCTA
## Result True

## Task Now consider TGAATGAGGTTATAAGAACAGGGAACGTTGCAAA .
## Result False

## Task Next: TCTGACAGGTGAAGGTAACTCAGGTACGCAGTCG
## Result False

## Task Then this sequence: TAGCCTCGGTCATGGGCCAGTATACCACGCGAAC
## Result False

## Task Next sequence: GCTAGCAGGCCTTTTGGGTCACTCAATGACGGGC
## Result False

## Task Next sequence: ATCTCTAGGTAATACTCAGTTCAGTGAAGAACGC
## Result True

## Task And the next one, TCTATTAGTTGATTAGGGCAACAGAAACAGCGGA ?
## Result True

## Task Same thing, different sequence: ACTAGTTGGTCAGTTGAGGTCACACACAATTCGG
## Result True

## Task Item: ACTAGCAGGCCAAGGGTCACGCAAGATTAGTCCG
## Result False

## Task Param item: GGTACAGGGTCAAGGCCAGAGTACGCGTATTGAT
## Result True

## Task Repeat for the following sequence: AATACAGGGTCATCGTAGGCTAGAGTACGCACAG
## Result True

## Task Okay, and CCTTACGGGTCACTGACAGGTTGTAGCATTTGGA ?
## Result False

## Task What do you get for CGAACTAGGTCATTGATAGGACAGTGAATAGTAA ?
## Result True

## Task Then what about the sequence ACTTACGGGTCAACGAGGTTTTAGCACGCGTATA ?
## Result False

## Task How about GCTCGGAGGACACGGTCAGAGCTTTGTCCGTAGA ?
## Result False

## Task Quick one: TCTTGTAGATAAACAGGAGGTTAAGAAAGATCGA
## Result False
